Data origin, for the record: patent US20080009416A1

system: male Lewis rats; conditions: intrapleural with carrageenan, 4 hours
Task for the reader: assign each of the following compounds its reported Acute Anti-inflammatory Activity in Rats ED50.
Could you give me the number in mg/rat? Just the number is fine.

Input: Field: Acute Anti-inflammatory Activity in Rats ED50 (male Lewis rats). Entry: CC(C)c1ccc(C(C)C)c(-c2csc(/C=C/c3ccc(N(C)C)cc3)[n+]2C)c1.[I-] [Formula IV]
Output: 0.0002

Input: Quick check: Acute Anti-inflammatory Activity in Rats ED50 on male Lewis rats, item "Cc1scc(-c2ccc(C3CCCCC3)cc2)[n+]1C.[I-]" ?
Output: 0.02

Input: // fetch male Lewis rats Acute Anti-inflammatory Activity in Rats ED50 for "CC(C)Cc1ccc(-c2csc(C=Cc3ccc(N4CCCC4)cc3)[n+]2C)cc1.[I-]"
Output: 0.0004

Input: // fetch male Lewis rats Acute Anti-inflammatory Activity in Rats ED50 for "CC[n+]1c(-c2ccc(-c3ccccc3)cc2)csc1C=Cc1ccc(N2CCCC2)cc1.[I-]"
Output: 0.001

Input: Give Acute Anti-inflammatory Activity in Rats ED50 (male Lewis rats) of the following compound: "CCOc1ccc(-c2csc(C=Cc3ccc(N(CC)CC)cc3)[n+]2C)cc1.[I-]"
Output: 0.001

Input: State its Acute Anti-inflammatory Activity in Rats ED50 on male Lewis rats: "CCN(CC)c1ccc(C=Cc2scc(-c3ccc(CC(C)C)cc3)[n+]2C)cc1.[I-]"
Output: 0.0003
